Reported values of % blocking of Gal3-TLR4 binding for individual entries
Target: T1, human Galectin-3 (Gal3), full-length recombinant (human, UniProt P17931 2-250)
T1 construct: treated here as one molecule; also called hGAL3; hGal3
T1 sequence (P17931 2-250 limits assumed): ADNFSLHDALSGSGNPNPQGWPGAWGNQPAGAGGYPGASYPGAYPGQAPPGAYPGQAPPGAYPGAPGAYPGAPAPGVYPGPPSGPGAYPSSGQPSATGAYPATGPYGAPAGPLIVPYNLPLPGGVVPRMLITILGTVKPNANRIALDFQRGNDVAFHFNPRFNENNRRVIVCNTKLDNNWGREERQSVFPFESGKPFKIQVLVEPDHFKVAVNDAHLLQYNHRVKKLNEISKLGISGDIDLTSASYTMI
Assay: blocking ELISA, Gal3 coated, biotin-TLR4

// % blocking of Gal3-TLR4 binding lookup, key: TB001 (antibody, IgG4, V domains shown, also called IMT001; IMT001-4) VH: QVQLVQSGSELKKPGASVKVSCKASGYTFTNYGMNWVRQAPGQGLKWMGWINTNTGEPTYVEEFTGRFVFSLETSVSTAYLQISSLKAEDTAVYFCAPYDNFFAYWGQGTTVTVSS VL: DIVLTQSPLSLPVTPGEPASISCRSSKSLLYKDGKTYLNWFLQKPGQSPQLLIYLMSTHASGVPDRFSGSGSGTDFTLKISRVEAEDVGVYYCQQLVDYPLTFGGGTKLEIKR > 90%

Which value of % blocking of Gal3-TLR4 binding has been reported for F846TC.16B5 (antibody, human IgG4 S228P, kappa, V domains shown, also called 846T.16B5) VH: QIQLVQSGPELKKPGETVKISCKASGYTFTNYGMNWVKQAPGKGLKWMGWINTYTGEPAYADDFKGRFAFSLETSASTAYLQINNLKNEDMATYFCARWGGYDGDYYAMDYWGQGTSVTVSS VL: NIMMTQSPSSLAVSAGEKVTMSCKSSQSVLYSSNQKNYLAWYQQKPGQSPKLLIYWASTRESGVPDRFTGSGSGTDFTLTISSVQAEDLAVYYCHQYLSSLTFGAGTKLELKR in the records? > 90%
